The values you see were collected from patent US20250042994A1.

Target: T1, Human CD19-his protein (human, UniProt P15391 20-291)
T1 construct: bought protein; also called recombinant human CD19-His; CD19 full-length protein; not shown: His tag
T1 sequence (looked up): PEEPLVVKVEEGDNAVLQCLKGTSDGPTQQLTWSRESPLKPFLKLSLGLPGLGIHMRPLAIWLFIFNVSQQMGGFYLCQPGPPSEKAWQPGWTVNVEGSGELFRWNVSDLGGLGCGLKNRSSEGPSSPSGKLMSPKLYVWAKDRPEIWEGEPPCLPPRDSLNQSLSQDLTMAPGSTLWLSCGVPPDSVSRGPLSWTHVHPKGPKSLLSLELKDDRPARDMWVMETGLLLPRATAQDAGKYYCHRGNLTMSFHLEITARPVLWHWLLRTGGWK
Assay: SPR Biacore, Ab captured on Protein A, CD19-His analyte
Protocol: A sample buffer and a running buffer were HBS-EP+ (10 mM HEPES, 150 mM NaCl, 3 mM EDTA and 0.05% surfactant P20) (GE Healthcare; BR-1006-69). The flow-through cell was set to 25° C. The sample block was set to 16° C. […] In each cycle, an antibody to be detected was first captured with a Protein A chip, and then a single concentration of CD19 antigen protein was injected. […] The dissociation phase was monitored for up to 600 s and was triggered by switching from sample solution to running buffer. […]
outcome-measure: kon
State the result as a value with its unit after it.

>  <binder>
F1-mab003 (antibody, human IgG1, V domains shown, human-murine chimeric antibody, human IgG1 constant) VH: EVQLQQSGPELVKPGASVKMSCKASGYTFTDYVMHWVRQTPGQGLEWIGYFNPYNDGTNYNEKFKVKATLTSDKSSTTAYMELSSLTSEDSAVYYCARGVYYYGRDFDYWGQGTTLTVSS VL: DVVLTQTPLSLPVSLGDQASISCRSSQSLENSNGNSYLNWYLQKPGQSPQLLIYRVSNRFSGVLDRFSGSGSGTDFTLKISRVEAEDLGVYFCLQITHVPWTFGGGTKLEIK

>  <kon>
450000 M⁻¹ s⁻¹

$$$$
>  <binder>
F6.5.20 (antibody, human IgG1, V domains shown, human-murine chimeric antibody, human IgG1 constant) VH: QVQLQQPGAELVKPGASVKLSCKASGYTFTSYWMQWVKQRPGQGLEWIGEIDPSDSYTNYNQKFKGKASLTVDTSSSTAYMQLSSLTSEDSAVYYCARWGLLRNYYVMDYWGQGTSVTVSS VL: EIVLTQSPTTMAASPGEKITITCSASSSISSNYLHWYQQKPGFSPKLLIYRTSNLASGVPARFSGSGSGTSYSLTIGTMEAEDVATYYCQQGSSIPRMLTFGAGTKLELK

>  <kon>
355000 M⁻¹ s⁻¹

$$$$

Field: next binder
**Query** Quick one: give measured kon for F4.152.7 (antibody, human IgG1, V domains shown, human-murine chimeric antibody, human IgG1 constant) VH: QVQLQQPGAELVKPGASVKLSCKASGYTFTSYWMHWVKQRPGQGLEWIGEIDPSDSYTNYNQKFKGKATLTADKSSSTAYMQLSGLTSEDSAVYHCARGGDYDGYYVMDYWGQGTSVTVSS VL: EIVLTQSPTTMAASPGEKITITCSASSSISSNYLHWYQQKPGFSPKLLIYRTSNLASGVPARFSGSGSGTSYSLTIGTMEADDVATYYCQQGSYIPRIFTFGSGTKLEIK
**Result** 264000 M⁻¹ s⁻¹
